The measurements presented in this section are drawn from patent US20240173440A1.

- protocol details: Lipophilicity, log D by shake-flask method (1-octanol/PBS pH 7.4)
- Format: physicochemical
- study conditions: shake-flask, Table 17, mean ± SD
Task for the reader: assign each of the following molecules its reported log D(O/PBS pH 7.4).
Give bare numbers.

Consider the reported log D(O/PBS pH 7.4) for these molecules:
[[record]]
molecule = "O=C(O)CC[C@H](NC(=O)N[C@@H](CCCCNC(=O)[C@H](Cc1ccc2ccccc2c1)NC(=O)c1ccc(CNC(=O)[C@H](CCC(=O)O)NC(=O)[C@H](CCC(=O)O)NC(=O)c2ccc([18F])nc2)cc1)C(=O)O)C(=O)O [[^18F]PSMA-1007]"
measured = "−3.02"

[[record]]
molecule = "O=C([O-])CN(CCN(CC(=O)[O-])Cc1cc(CCC(=O)NCCCCCC(=O)NCCCC[C@H](NC(=O)N[C@@H](CCC(=O)O)C(=O)O)C(=O)O)ccc1[O-])Cc1cc(CCC(=O)O)ccc1[O-].[68Ga+3].[OH3+] [[^68Ga]Ga-PSMA-11]"
measured = "−3.89"

[[record]]
molecule = "O=C([O-])CN1CCN(CC(=O)[O-])CCN(C(CCC(=O)N[C@H](Cc2ccc(O)c(I)c2)C(=O)N[C@H](Cc2ccccc2)C(=O)N[C@H](CCCCNC(=O)CCCCCCC(=O)NCCCC[C@H](NC(=O)N[C@@H](CCC(=O)O)C(=O)O)C(=O)O)C(=O)O)C(=O)O)CCN(CC(=O)O)CC1.[61Cu+2] (stereo partly shown) [[^61Cu]Cu-DOTAGA-PSMA-I&T]"
measured = "−2.69"


Continue with the molecule presented below.
I have this molecule here, O=C(O)CC[C@H](NC(=O)N[C@@H](CCCCNC(=O)CCCCCCC(=O)NCCCC[C@@H](NC(=O)[C@@H](Cc1ccccc1)NC(=O)[C@@H](Cc1ccc(O)c(I)c1)NC(=O)CC[C@H](C(=O)O)N1CCN2CCN(CC1)CC(=O)[O][61Cu][O]C(=O)C2)C(=O)O)C(=O)O)C(=O)O [[^61Cu]Cu-NODAGA-PSMA-I&T] , and I need its recorded log D(O/PBS pH 7.4). −2.95

###

- Test system: HT-1080.hFAP and HT-1080.wt xenografts
- protocol details: Quantitative biodistribution in HT-1080.hFAP and HT-1080.wt xenografted mice
- Type: in vivo
- study conditions: 4 hours p.i.
measured property: Biodistribution Stomach

[[record]]
molecule = "CN(C(=O)CCC(=O)NCCNC(=O)CC[C@H](C(=O)O)N1CCN2CCN(CC1)CC(=O)[O][61Cu][O]C(=O)C2)c1ccc2nccc(C(=O)NCC(=O)N3CC(F)(F)C[C@H]3C#N)c2c1 [[^61Cu]Cu-NODAGA-F2]"
measured = "0.3 ± 0.1 % I.A./g"


For each listed entry, give its Biodistribution Stomach.
1. N#C[C@@H]1CC(F)(F)CN1C(=O)CNC(=O)c1ccnc2ccc(NC(=O)CCC(=O)N3CCN(C(=O)CC[C@H](C(=O)O)N4CCN5CCN(CC4)CC(=O)[O][61Cu][O]C(=O)C5)CC3)cc12 [[^61Cu]Cu-NODAGA-F3]
2. CN(C(=O)CCC(=O)N1CCN(C(=O)CC[C@H](C(=O)O)N2CCN3CCN(CC2)CC(=O)[O][61Cu][O]C(=O)C3)CC1)c1ccc2nccc(C(=O)NCC(=O)N3CC(F)(F)C[C@H]3C#N)c2c1 [[^61Cu]Cu-NODAGA-F4]

["0.5 ± 0.0 % I.A./g", "0.2 ± 0.0 % I.A./g"]

I have this molecule here, N#C[C@@H]1CC(F)(F)CN1C(=O)CNC(=O)c1ccnc2ccc(NC(=O)CCC(=O)NCCNC(=O)CC[C@H](C(=O)O)N3CCN4CCN(CC3)CC(=O)[O][61Cu][O]C(=O)C4)cc12 [[^61Cu]Cu-NODAGA-F1] , and I need its recorded Biodistribution Stomach. 0.7 ± 0.1 % I.A./g
